# Test system: HEK-293T
# test-protocol: Multiplex assay against HEK293T
# Type: toxicity, cell-based
# condition-notes: human, 12 h, 10 µM, compound concentration 10 uM, replicate 2
// classify: if (Population Hoechst High Intensity Objects (%) < 4%) fulfilled else not fulfilled

>>> print(df.to_string())
                                    compound    group_label
 0  Cc1nc(-c2ccc(-c3ccc(C(=O)N4CCc5cc6c(cc54)C4(CCN(C)CC4)CO6)cc3)c(C)c2)no1  not fulfilled
 1  CC(C)(O)CNc1ncc(-c2ccnc(Nc3ccnc(Cl)c3)n2)c(CC2CC2)n1  not fulfilled
 2  CC(C)NCC(O)COc1ccc(CCOCC2CC2)cc1.Cl (stereo unspecified) [BETAXOLOL HYDROCHLORIDE]      fulfilled
 3  Cc1nc(Nc2n[nH]c3c2CN(C(=O)N[C@H](CN(C)C)c2ccccc2)C3(C)C)c2sccc2n1  not fulfilled
 4  Cc1c(-c2ccc(O)cc2)n(Cc2ccc(OCCN3CCCCCC3)cc2)c2ccc(O)cc12  not fulfilled
 5  Cl.N#Cc1ccc2[nH]cc(CCCCN3CCN(c4ccc5oc(C(N)=O)cc5c4)CC3)c2c1 [VILAZODONE HYDROCHLORIDE]  not fulfilled
 6  Cc1cc(C)cc(-c2cnc3cc(Cl)c(-c4cccc(O)c4)cc3c2OCCCN)c1      fulfilled
 7  O=C1NCN(c2ccccc2)C12CCN(CCCOc1ccc(F)cc1)CC2 [SPIRAMIDE]      fulfilled
 8  COc1cc2nccc(Oc3ccc(NC(=O)Nc4cc(C)on4)c(Cl)c3)c2cc1OC.O      fulfilled
 9  C=CC(=O)Nc1cccc(C(=O)Nc2ccc(Nc3cc(-c4[nH]c(SC)nc4C)ccn3)cc2)c1  not fulfilled
10  CN1CCN(c2ccc(OC(F)(F)F)c(Nc3ncc4c(n3)-c3c(c(C(N)=O)nn3CCO)CC4)c2)CC1      fulfilled
11  CCN(CC)CCCCNc1ncc2cc(-c3cc(OC)cc(OC)c3)c(NC(=O)NC(C)(C)C)nc2n1  not fulfilled

----------
# Test system: HEK-293T
# test-protocol: Multiplex assay against HEK293T
# Format: toxicity, cell-based
# condition-notes: human, 24 h, 10 µM, compound concentration 10 uM, replicate 2
// classify: if (Population Healthy Nuclei (%) < 50%) 1.0 else 0.0

                              smiles_string  group_label
0  Cc1cc(C)cc(-c2cnc3cc(Cl)c(-c4cccc(O)c4)cc3c2OCCCN)c1          1.0
1  Cn1cc(-c2[nH]c3cc(NC(=O)[C@H](N)C4CCCCC4)cc4c3c2C=NNC4=O)cn1          1.0
2  CC[C@H](C)C(=O)O[C@H]1C[C@@H](C)C=C2C=C[C@H](C)[C@H](CC[C@@H]3C[C@@H](O)CC(=O)O3)[C@H]21          0.0
3  CN1CCN(c2ccc(OC(F)(F)F)c(Nc3ncc4c(n3)-c3c(c(C(N)=O)nn3CCO)CC4)c2)CC1          1.0
4  CN1CCN(CCOc2cc(OC3CCOCC3)c3c(Nc4c(Cl)ccc5c4OCO5)ncnc3c2)CC1          1.0
5  Cc1nc(Nc2n[nH]c3c2CN(C(=O)N[C@H](CN(C)C)c2ccccc2)C3(C)C)c2sccc2n1          0.0
